This collection of values is drawn from patent US20240383856A1.

Below, each entry is listed with its recorded pIC50.
Target: recombinant human transglutaminase 2 (Homo sapiens, UniProt P21980)
Construct: purchased Zedira T022
Sequence (P21980 whole entry): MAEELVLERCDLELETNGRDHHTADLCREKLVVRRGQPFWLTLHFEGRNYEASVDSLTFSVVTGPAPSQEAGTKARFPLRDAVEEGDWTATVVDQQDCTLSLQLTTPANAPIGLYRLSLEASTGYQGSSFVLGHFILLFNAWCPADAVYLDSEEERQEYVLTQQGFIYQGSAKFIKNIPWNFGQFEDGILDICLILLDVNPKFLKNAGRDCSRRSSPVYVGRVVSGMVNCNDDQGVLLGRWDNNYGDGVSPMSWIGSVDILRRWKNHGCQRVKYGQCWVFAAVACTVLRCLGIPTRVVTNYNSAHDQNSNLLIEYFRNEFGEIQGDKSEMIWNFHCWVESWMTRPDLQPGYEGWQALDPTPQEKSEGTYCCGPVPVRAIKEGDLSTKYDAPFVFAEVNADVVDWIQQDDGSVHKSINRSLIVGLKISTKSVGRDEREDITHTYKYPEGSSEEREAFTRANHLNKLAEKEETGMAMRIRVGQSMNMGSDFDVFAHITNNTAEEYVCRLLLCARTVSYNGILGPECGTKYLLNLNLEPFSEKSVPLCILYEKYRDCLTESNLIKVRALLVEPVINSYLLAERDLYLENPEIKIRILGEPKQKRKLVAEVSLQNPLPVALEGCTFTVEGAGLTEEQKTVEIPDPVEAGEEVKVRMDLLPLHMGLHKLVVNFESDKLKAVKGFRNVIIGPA
Experiment: Transglutaminase assay (DCC-assay): incorporation of dansylcadaverine into dimethylcasein
Format: biochemical
Conditions: recombinant human TG2 10 nM; dansylcadaverine incorporation into dimethylcasein; read-out: IC50 TG2
pIC50: −log10 of the molar value.

The examples below pair each entry with its known result.
CNC(=O)C(=O)CC[C@H](NC(=O)c1ccnn1C)C(=O)Nc1cccn(CC(=O)N[C@H]2C[C@H]3CC[C@]2(C)C3(C)C)c1=O [II-163]	6.40 to 7.40
CNC(=O)C(=O)CC[C@H](NC(=O)c1cc(Br)co1)C(=O)Nc1cccn(CC(=O)NC2C3CC4CC(C3)CC2C4)c1=O (stereo partly drawn) [II-47]	> 7.40
CNC(=O)C(=O)CC[C@H](NC(=O)c1nc[nH]n1)C(=O)Nc1cccn(CC(=O)NC2C3CC4CC(C3)CC2C4)c1=O (stereo partly drawn) [II-134]	5.60 to 6.40
CNC(=O)C(=O)CC[C@H](NC(=O)c1coc(C(C)=O)n1)C(=O)Nc1cccn(CC(=O)NC23CC(C2)C3)c1=O [II-168]	6.40 to 7.40
CNC(=O)C(=O)CC[C@H](NC(=O)c1sc(C(F)(F)F)nc1C)C(=O)Nc1cccn(CC(=O)N[C@@H]2C[C@H]3CC[C@@H]2C3)c1=O [II-129]	6.40 to 7.40

Attention now turns to another entry.
What value of measured pIC50 is listed for CNC(=O)C(=O)CC[C@H](NC(=O)c1cccnc1)C(=O)Nc1cccn(CC(=O)NC2C3CC4CC(C3)CC2C4)c1=O (stereo partly drawn) [II-111] ?
> 7.40
